# testedTarget: Trypanothione reductase (Trypanosoma cruzi, UniProt P28593)
# Sequence (P28593 whole entry): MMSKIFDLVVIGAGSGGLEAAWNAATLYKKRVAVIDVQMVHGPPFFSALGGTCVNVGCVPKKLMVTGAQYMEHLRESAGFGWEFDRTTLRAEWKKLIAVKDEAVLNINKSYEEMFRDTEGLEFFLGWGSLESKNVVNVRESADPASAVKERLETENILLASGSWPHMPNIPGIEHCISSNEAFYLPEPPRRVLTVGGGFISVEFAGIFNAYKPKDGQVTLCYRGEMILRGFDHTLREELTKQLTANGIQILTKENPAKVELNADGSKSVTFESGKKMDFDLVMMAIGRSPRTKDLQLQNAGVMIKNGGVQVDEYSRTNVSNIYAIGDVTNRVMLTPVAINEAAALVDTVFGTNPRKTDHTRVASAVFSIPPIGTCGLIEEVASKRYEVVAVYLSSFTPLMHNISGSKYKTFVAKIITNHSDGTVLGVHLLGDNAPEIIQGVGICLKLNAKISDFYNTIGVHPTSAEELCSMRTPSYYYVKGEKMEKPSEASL
# experimentalDetails: Inhibitory activity against recombinant Trypanosoma cruzi (Trypanosoma cruzi) Trypanothione reductase
# measurementParameters: read-out: I50
pIC50: −log10 of the molar value.
Everything with pIC50 lower than 4 is N; everything else, including exactly 4, is Y.

- CCN(CC)CCCC(=O)N1c2ccccc2Sc2ccc(Cl)cc21: N
- CC(=O)c1ccc2c(c1)N(C(C)=O)c1cc(C(C)=O)ccc1S2: Y
- C/C(=N/OCc1ccccc1)c1ccc2c(c1)N(CCCN(C)C)c1ccccc1S2: N
- CC(CN(C)C)CN1c2ccccc2Sc2ccccc21 (stereo not given) [METHYLPROMAZINE]: N
- CCN(CC)CCCCCC(=O)N1c2ccccc2Sc2ccc(Cl)cc21: N
- CN1CCN(CCCN2c3ccccc3Sc3ccc(C(F)(F)F)cc32)CC1 [TRIFLUOPERAZINE]: Y
- NCCCN1c2ccccc2Sc2ccccc21: N
- OCCN1CCN(CCCN2c3ccccc3Sc3ccc(C(F)(F)F)cc32)CC1 [FLUPHENAZINE]: Y

###

# testedTarget: Trypanothione reductase (Trypanosoma cruzi, UniProt P28593)
# experimentalDetails: Inhibitory activity against recombinant Trypanosoma cruzi (Trypanosoma cruzi) Trypanothione reductase
# measurementParameters: read-out: I50
measuredAttribute: IC50 (µM)

* CN(C)CCCN1c2ccccc2Sc2ccc(C(=O)O)cc21 | 3910
* C/C(=N\OCc1ccccc1)c1ccc2c(c1)N(CCCN(C)C)c1cc(Cl)ccc1S2 | 199
* NCCCN1c2ccccc2Sc2ccc(Cl)cc21 [NOR2-CHLORPROMAZINE] | 139
* CCCC(=O)c1ccc2c(c1)N(CCCN(C)C)c1ccccc1S2 | 301
* CCCC(=O)N1c2ccccc2Sc2ccc(Cl)cc21 | 95
* CNCCCN1c2ccccc2Sc2ccccc21 | 1030
* O=C(CBr)N1c2ccccc2Sc2ccc(Cl)cc21 | 251
* COC(=O)c1ccc2c(c1)N(CCCN(C)C)c1ccccc1S2 | 348
* CN(C)CCCN1c2ccccc2Sc2ccccc21 [PROMAZINE] | 108
* CC(=O)c1ccc2c(c1)N(C(C)=O)c1ccccc1S2 | 2810
* CN(C)CCN1c2ccccc2Sc2ccc(Cl)cc21 [CHOLRPHENETHAZINE] | 150
* CN(C)CCCN1c2ccccc2Sc2ccc(CO)cc21 | 1190
* N=C(N)CCN1c2ccccc2Sc2ccc(Cl)cc21 | 307
* CN(C)CCCN1c2ccccc2Sc2ccc(COc3ccc(C(C)(C)C)cc3)cc21 | 161
* CC(=O)c1ccc2c(c1)N(CCCN(C)C)c1ccccc1S2 [ACEPROMAZINE] | 502
* CC(=O)c1ccc2c(c1)N(CCCN(C)C)c1cc(C(C)=O)ccc1S2 | 472
* CO/N=C(/C)c1ccc2c(c1)N(CCCN(C)C)c1ccccc1S2 | 351

###

# testedTarget: Trypanothione reductase (Trypanosoma cruzi)
# experimentalDetails: Inhibitory activity against recombinant Trypanosoma cruzi (Trypanosoma cruzi) Trypanothione reductase (linear competitive type)
pKi: −log10 of the molar value.
Everything with pKi lower than 4 is no; everything else, including exactly 4, is yes.

• CC(CN1c2ccccc2Sc2ccccc21)N(C)C (stereo not given) = no
• CCCN1CCN(CCCN2c3ccccc3Sc3ccc(Cl)cc32)CC1 = yes
• CN(C)CCCN1c2ccccc2Sc2ccc(Cl)cc21 = yes
• CN(C)CCCN1c2ccccc2Sc2ccc(C(F)(F)F)cc21 = yes
• CN(C)CCCN1c2ccccc2Sc2ccccc21 = yes
